Taken from the supplement of paper PMC10567573.

B1: CLCN6 (parent)
chain: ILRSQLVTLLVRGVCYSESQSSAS

- Variants of: B1
- procedure_summary: protein stability index of a GFP-peptide fusion (GPS, HEK-293T) (PSI 1-6); higher = more stable;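 also: lentivirally expressed fusions sorted by FACS into six bins by GFP to DsRed ratio, PSI derived from sequencing read proportions per bin multiplied by bin number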
- experimental_setup: c terminus: a fixed tail appended
Lab note: anything with protein stability index at or over 3 counts as 1; the rest go in -1.

For orientation, consider the following solved cases.
ILRSQLVTLLVRGVCYSESGSSAS :: 1
ILRSQLVTLLVIGVCYSESQSSAS :: -1
IYRSQLVTLLVRGVCYSESQSSAS :: 1
ILRSQLVTLLVRGVCYSQSQSSAS :: -1
ILRSQLVTLLDRGVCYSESQSSAS :: -1

protein stability index >= 3 for `ILVSQLVTLLVRGVCYSESQSSAS` ? -1

Consider next the variant `ILRDQLVTLLVRGVCYSESQSSAS` in the same way. -1

Request: `ILRSFLVTLLVRGVCYSESQSSAS` -1

How about this variant: `ILRSQLVTLLVRGVCYSMSQSSAS` -1
